Source of measurements: patent US20170248602A1

System: SNAP-25 peptide comprising amino acids 134-197 of SEQ ID NO:5 (human)
Protocol Summary: SPR (BIAcore 3000), peptide on CM5 chip, 1:1 fit
Assay Metric: koff (s⁻¹)
Give your result in s⁻¹ as a bare value.

Reference set (3 entries):
Binder	koff / s⁻¹
α-SNAP-25 mouse monoclonal antibody 1D3B8 (antibody, V domains shown) VH: QVKLQESGAELVKPGASVKISCKASGYIFTDHALHWVRQKPEQGLEWIGYIFPGNGNIEYNEKFKGKATLTADKSSSTAYMQLNSLTSGDSAMYFCKKMDYWGQGTTVTVSS VL: DVLMTQTPLSLPVSLGDQASISCRSSQSIVHSNGNTYLEWYLQKPGQSPKLLIYKVSNRFSGVPDRFSGSGSGTDFTLKISRVEAEDLGVYYCFQGSHVPPTFGAGTKLELKR	5.78e-05
α-SNAP-25 mouse monoclonal antibody 2E2A6 (antibody, V domains shown) VH: QVQLQQSDAELVKPGASVKISCRASGYTFTDHSIHWVKQQPGQGLEWIGYIFPGNGNIEYNDKFKGKATLTADKSSGTAYMQLNSLTSEDSAVYFCKRMGYWGQGTSVTVSS VL: DVLMTQTPLTLSVTIGQPASISCKSSQSLLYTNGKTYLTWLFQRPGQSPKRLIYLVSELDSGVPDRFSGSGSGTDFTLEITRVEAEDLGVYYCLQSAHFPFTFGSGTKLEIKR	0.000153
α-SNAP-25 mouse monoclonal antibody 3C1A5 (antibody, V domains shown) VH: QVKLQESGAELVKPGASVKISCKASGYTFTDHSIHWVKQKPGQGLEWIGYLFPGNGNFEYNEKFKGKATLTADKSSSTVYMYLNSLTSEDSAVYFCKRMGYWGQGTTVTVSS VL: DVVMTQTPLTLSVTIGQPASISCKSSQSLLNTNGKTYLTWLIQRPGQSPQRLIYLVSKLDSGVPDRFSGSGSGTDFTLKISRVEAEDLGVYYCLQSSHFPFTFGSGTKLEIKR	0.000288

Query: Recorded koff of α-SNAP-25 mouse monoclonal antibody 2C9B10 (antibody, V domains shown) VH: QVKLQESGAELVKPGASVKISCKASGYTFTDHSIHWVKQKPGQGLEWIGYLFPGNGNFEYNEKFKGKATLTADKSSSTAYMHLNSLTSEDSAVYFCKKMDYWGQGTTVTVSS VL: DIQMTQSPASLSASVGETVTITCRTTENIYSYFVWSQQRQGKSPQLRVYNAKSLAEGVPSSFNVSVSGTQFSLKINSLQPEDFGTYHCQHHYGTPYTFGGGTRLEIRR , please.
Reply: 0.000311
